Data origin: ChEMBL document CHEMBL1134386

experimental.target: Sulfonylurea receptor 1, Kir6.2 (Homo sapiens) (UniProt Q14654+Q09428)
assay.info: Antiarrhythmic effect in hSUR1/hKir6.2 (pancreatic KATP channel) transfected in CHO cells at a dose of 0.1 uM
Assay type: functional, cell-based
test.context: at 0.1 µM
Catalogue of inhibition readings, one per entry.
Output spec: scalar in %, unitless text.

CN/C(S)=N/S(=O)(=O)c1cccc(CCNC(=O)c2cc(Cl)ccc2OC)c1	-4.1
CNC(=O)NS(=O)(=O)c1ccc(CCNC(=O)c2cc(Cl)ccc2OC)cc1	-0.7
COc1ccc(Cl)cc1C(=O)NCCc1ccc(OC)c(S(=O)(=O)/N=C(/N)S)c1	1.6
C=CCOc1ccc(CCNC(=O)c2cc(Cl)ccc2OC)cc1S(=O)(=O)/N=C(\S)NC	1.7
CN/C(S)=N/S(=O)(=O)c1cc(CCNC(=O)c2cc(Cl)ccc2OC)ccc1-c1ccccc1	9.4

# next molecule below
Incoming: # input molecule: `CN/C(S)=N/S(=O)(=O)c1cc(CCNC(=O)c2cc(Cl)ccc2OC)ccc1-c1cccnc1` ; wanted: its inhibition
Outgoing: 4.4
